tested on: SR; experiment: NCI tumour cell line growth inhibition, 48 h
Activity calls are given as the source filed them. Rule as the data show it: active = GI50 up to about 1.1 µM and inactive = higher.
Outcomes you can answer with include only these: yes (active), no (inactive)

Per the assay record, what outcome was assigned to "CC(C)(C)OC(=O)N(CCCCNC(=O)OCc1ccccc1)CCCNC(=O)OCc1ccccc1" ?
no

Per the assay record, what outcome was assigned to "CC(=O)/C(=C\c1ccccc1)C(=O)Nc1ccccc1" ?
no

Per the assay record, what outcome was assigned to "COP(=O)(OC)[C@@](O)(c1ccccc1)[C@@H](O)[C@@H](O)c1ccccc1" ?
yes

Continuing:
Per the assay record, what outcome was assigned to "Cc1cccc2cc3c(ccc4ccccc43)c[n+]12" ?
no

Per the assay record, what outcome was assigned to "COc1cc2cnc3c4cc(O)ccc4ccc3c2cc1OC" ?
no

Per the assay record, what outcome was assigned to "OCc1ccc(-c2ccc(-c3ccc(CO)s3)o2)s1" ?
no

* * *

tested on: SNB-75; test: NCI tumour cell line growth inhibition, 48 h
Activity calls are given as the source filed them. Rule as the data show it: active = GI50 up to about 1.1 µM and inactive = higher.
Outcomes you can answer with include only these: yes (1) (active), no (0) (inactive)

For orientation, consider the following solved cases.
Per the assay record, what outcome was assigned to "O=c1[nH]/c(=C/c2ccc(OCc3ccccc3)cn2)c(=O)[nH]/c1=C/c1ccc([N+](=O)[O-])cc1" ?
no (0)

Per the assay record, what outcome was assigned to CCCCCCCCP(=O)(O)OP(=O)(O)OCC1OC(n2ccc(N)nc2=O)C(O)C1O (stereo not drawn) ?
no (0)

Per the assay record, what outcome was assigned to "COc1cccc(C(=O)O[C@H]2[C@@H]3[C@]4(OC(C)=O)CO[C@@H]4C[C@H](O)[C@@]3(C)C(=O)[C@H](OC(C)=O)C3=C(C)[C@@H](OC(=O)[C@H](O)[C@@H](NC(=O)OC(C)(C)C)c4ccco4)C[C@]2(O)C3(C)C)c1" ?
yes (1)

Per the assay record, what outcome was assigned to CC(=O)NC1C(OCc2ccccc2)OC(CO)C(O)C1OC(C)C(=O)NC(C)C(=O)NC(CCC(=O)NCCCNc1c2ccccc2nc2cccc([N+](=O)[O-])c12)C(N)=O (stereo not drawn) ?
no (0)

Per the assay record, what outcome was assigned to "Cc1ccccc1C1=[N+]([O-])c2ccccc2C1=O" ?
no (0)

Per the assay record, what outcome was assigned to "COc1ccc(-c2nc3ccccc3s2)cc1OC" ?
no (0)

Per the assay record, what outcome was assigned to Fc1sc2c(c1F)C1CCC2C1 (stereo not drawn) ?
no (0)

Per the assay record, what outcome was assigned to CCC(C#N)N(Cc1ccc(CN(C(=O)c2ccccc2)C(C#N)CC)cc1)C(=O)c1ccccc1 (stereo not drawn) ?
no (0)

Per the assay record, what outcome was assigned to "CCN(CC)c1ccc(/C=C2\CCc3ccc([N+](=O)[O-])cc3C2=O)cc1" ?
no (0)

Per the assay record, what outcome was assigned to "N#Cc1c(NC(=S)Nc2ccc(Cl)cc2)sc2c1CCCC2" ?
no (0)

Continuing:
Per the assay record, what outcome was assigned to CC(C)C1OC(=O)/C=C/C=C/C=C/C=C/C=C/CC(O)C(C)C(O)CC(O)CC(O)CC(O)CC(O)CC(O)CC(O)/C=C/C1C (stereo not drawn) ?
no (0)

Per the assay record, what outcome was assigned to "COc1ccc2c(c1)[n+]([O-])c(-c1ccc(Cl)c(Cl)c1)c(N)[n+]2[O-]" ?
no (0)

Per the assay record, what outcome was assigned to Cc1ccc(NC(=O)C(=O)C2C(=O)N(c3ccccc3)N=C2N)cc1C (stereo not drawn) ?
no (0)

Per the assay record, what outcome was assigned to CC(C)=Cc1cc2c(cc1O)CCC1C2CC[C@@]2(C)C1CC[C@@H]2O (stereo partly drawn) ?
no (0)

Per the assay record, what outcome was assigned to "CC(C)(C)OC(=O)N(CCCCNC(=O)OCc1ccccc1)CCCNC(=O)OCc1ccccc1" ?
no (0)

Per the assay record, what outcome was assigned to Cn1c(=O)c(C(c2ccc([N+](=O)[O-])cc2)c2c(O)c3ccccc3n(C)c2=O)cc2ccccc21 (stereo not drawn) ?
no (0)

Per the assay record, what outcome was assigned to "Cc1cc(S(=O)(=O)Nc2nc(N)n(-c3ccccc3)n2)c(S)cc1Cl" ?
no (0)

Per the assay record, what outcome was assigned to "O=c1[nH]cc(COCCO)c(=O)[nH]1" ?
no (0)
